molecular target: UP1 (UniProt P09651-2 1-196); experiment: ITC; 100 mM KCl; ITC/CD: 20 mM Tris-Cl pH 8, 100 mM NaCl or KCl, 25 C; NMR: 10 mM sodium or potassium phosphate pH 6.5, 100 mM NaCl or KCl, 298 K; conditions: protein: recombinant; tags: C-terminal 6xHis (pET28a); chain copies: 2; single strand
Sequence (P09651 1-196): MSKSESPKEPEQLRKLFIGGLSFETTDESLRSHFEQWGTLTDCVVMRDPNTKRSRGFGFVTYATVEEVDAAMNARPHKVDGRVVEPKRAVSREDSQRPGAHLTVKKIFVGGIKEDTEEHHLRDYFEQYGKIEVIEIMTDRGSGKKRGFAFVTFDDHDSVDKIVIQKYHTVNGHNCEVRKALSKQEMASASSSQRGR
Assay Metric: pKd
Recall that pKd is obtained by taking minus log10 of the concentration measured in molar.

Using the record for AGGATTAGGATTAGGATTAGGA (ssDNA) [Tel22ss] , report its pKd.
5.91
